- tested.on: T1, human CXCR2 (human, UniProt P25025 1-360)
- T1 construct: Expressed on Flp-In CHO cells (FACS, Fab-ZAP, ADCC, CDC) or on bought PathHunter CHO cells (beta-arrestin assay); the construct in the PathHunter cells is not described; also called chemokine receptor CXCR2; CXCR2 CHO Flp-In cells
- T1 sequence: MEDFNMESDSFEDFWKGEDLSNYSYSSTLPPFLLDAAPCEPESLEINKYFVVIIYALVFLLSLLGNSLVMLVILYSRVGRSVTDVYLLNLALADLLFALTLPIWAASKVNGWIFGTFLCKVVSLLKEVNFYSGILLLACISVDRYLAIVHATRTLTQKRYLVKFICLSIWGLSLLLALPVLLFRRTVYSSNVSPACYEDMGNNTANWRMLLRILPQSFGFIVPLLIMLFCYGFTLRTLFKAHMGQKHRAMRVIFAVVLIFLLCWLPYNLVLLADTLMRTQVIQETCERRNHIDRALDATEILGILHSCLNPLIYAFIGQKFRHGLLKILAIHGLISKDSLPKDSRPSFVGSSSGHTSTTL
- procedure.details: FACS, CXCR2 CHO Flp-In cells, IgG1
measured.property: binding result

[[record]]
binder = "CX2-Mab #1.5 (antibody, IgG1, V domains shown) VH: QVQLVQSGAEVKKPGSSVKVSCKASGGTFSSYAISWVRQAPGQGLEWMGGIIPIVGEAKYAQKFQGRVTITADESTSTAYMELSSLRSEDTAVYYCARDSSGYDGYYAFAYWGQGTQVTVSS VL: DIVLTQPPSVSGAPGQRGTISCSGSSSNIGSSSVNWYQQLPGTAPKLLIYRNNQRPSGVPDRFSGSKSGTSASLAITGLQAEDEADYYCASTDSQWRQIVFGGGTKLTVLG"
result_value = "binds"

